- System: OVCAR-8
- procedure.text: NCI tumour cell line growth inhibition, 48 h
Where a name gives a salt, the structure may show the parent alone. Active and inactive are the calls of the source. No stated cut-off is given here; in the data, active = GI50 up to about 1.1 µM and inactive = higher.
Catalogue of compounds with associated GI50
endpoint.label: GI50

- compound: "O=C(CNS(=O)(=O)Cc1ccccc1)NNc1ccccc1"
  measured: "> 100 µM (inactive)"
- compound: "COc1ccc(/N=N/c2c(-c3c(OC)cc4occc4c3OC)[nH]c(=O)c(C#N)c2C)cc1"
  measured: "> 100 µM (inactive)"
- compound: "CCc1ccc2c(c1)N(CC(C)CN(C)C)c1ccccc1S2 (configuration not stated) [ETYMEMAZINE HYDROCHLORIDE]"
  measured: "7.94 µM (inactive)"
- compound: "CC1(C)COC(C2(C)C(=O)C=C(c3ccccc3)c3ccccc32)=N1 (configuration not stated)"
  measured: "46.8 µM (inactive)"
- compound: "CC1C(c2ccccc2)OP(=O)(OC(C#N)c2ccccc2)N1C (configuration not stated)"
  measured: "> 100 µM (inactive)"
- compound: "O=C1c2ccc3c4ccc5c6c(ccc(c7ccc(c2c37)C(=O)N1CCN1CCCCC1)c64)C(=O)N(CCN1CCCCC1)C5=O"
  measured: "> 100 µM (inactive)"
- compound: "OCC(O)C(O)C(O)c1nnn[nH]1 (configuration not stated)"
  measured: "> 100 µM (inactive)"
- compound: "CC(=O)Oc1ccc2c3c1[C@@H]1O[C@@H]1c1cccc(c1-3)[C@@H]1O[C@H]21"
  measured: "1.54 µM (inactive)"
- compound: "Cc1ccc(S(=O)(=O)Nc2ccccc2C(=O)c2ccc(C)c(C)c2)cc1"
  measured: "> 100 µM (inactive)"
- compound: "COc1ccc(/N=C(/C[S+]([O-])c2ccc(C)cc2)C(F)(F)F)cc1 (configuration not stated)"
  measured: "> 100 µM (inactive)"
- compound: "O=C(O)/C=C/c1c[nH]cn1"
  measured: "> 500 µM (inactive)"
- compound: "CCN1CCC(O)(c2ccc(Oc3ccc(F)cc3)cc2)C(C(=O)c2ccc(Oc3ccc(F)cc3)cc2)C1 (configuration not stated)"
  measured: "15 µM (inactive)"
- compound: "O=[N+]([O-])c1cccc2nc3ccccc3c(NCCC[N+]3([O-])CCCCC3)c12"
  measured: "1.85 µM (inactive)"
- compound: "Nc1ccn(C=C=CCO)c(=O)n1"
  measured: "229 µM (inactive)"
- compound: "COc1ccc(N2C(=O)C3CC4=CC(=O)C[C@H]4[C@H]32)cc1 (some centres not stated)"
  measured: "49.4 µM (inactive)"
- compound: "C[C@@H](CC(O)C(O)C(C)(C)O)C1CCC23CC12CCC1[C@@]2(C)CCC(O)C(C)(C)C2CC(OC2OC(CO)C(O)C(O)C2O)[C@]13C (some centres not stated)"
  measured: "> 10 µM (inactive)"
- compound: "CN1[C@@H]2CCCC[C@H]2N(C)P1(=O)C(O)/C=C/c1ccccc1 (some centres not stated)"
  measured: "> 100 µM (inactive)"
- compound: "COc1cc2c(cc1O)[C@H](Cc1ccc(Oc3cc(C[C@H]4c5cc(OC)c(OC)cc5CCN4C)ccc3OC)cc1)NCC2"
  measured: "14.5 µM (inactive)"
- compound: "O=C(Nc1nc2ccc([N+](=O)[O-])cc2s1)C(=O)C(C1OC(=O)c2ccccc21)[N+](=O)[O-] (configuration not stated)"
  measured: "> 100 µM (inactive)"
- compound: "COc1ccc(C2SC(=N)Nc3c2c(C)nn3C(=O)c2ccncc2)cc1 (configuration not stated)"
  measured: "> 100 µM (inactive)"
- compound: "COc1ccc(/C=C2\\N=C3N(Cc4ccccc4)C=C(N)N3C2=O)cc1"
  measured: "64.6 µM (inactive)"
- compound: "COc1cccc2c(Nc3ccc(S(=O)(=O)N=C(N)N)cc3)c3ccc([N+](=O)[O-])cc3nc12"
  measured: "15.7 µM (inactive)"
- compound: "Cc1ccc(C)c(NC(=O)C(Cc2c[nH]c3ccccc23)NC(=O)OCc2ccccc2)c1 (configuration not stated)"
  measured: "17.5 µM (inactive)"
- compound: "COc1cc(/C=C(\\C#N)C(=O)c2ccccc2)cc(OC)c1OC"
  measured: "> 100 µM (inactive)"
- compound: "COc1cc(C(C)c2cc3c(cc2OCCO)OCO3)cc(OC)c1OC (configuration not stated)"
  measured: "3.27 µM (inactive)"
- compound: "c1ccc(Cc2nc(Cc3n[nH]c(Cc4ccccc4)n3)n[nH]2)cc1"
  measured: "> 100 µM (inactive)"
- compound: "N#Cc1nc(CCc2nc(C#N)c(N)o2)oc1N"
  measured: "> 10 µM (inactive)"
